system: Human alphaherpesvirus 1; assay: Antiviral activity against Human herpesvirus 1 infected in human HeLa cells assessed as ratio of viral titer in absence of drug over viral titer in presence of drug after 36 hrs by end point titration method; assay type: functional, organism-based
Active and inactive are the calls of the source. No cut-off for these calls is given here.
observed-property: Activity

[[record]]
line_notation = "CC(C)c1ccc2c(c1)C(=O)C[C@H]1[C@](C)(CO)CCC[C@]21C"
observed_property = "Activity"
recorded_value = "inactive"

[[record]]
line_notation = "CC(C)c1ccc2c(c1)[C@H](O)C[C@H]1[C@](C)(C=O)CCC[C@]21C"
observed_property = "Activity"
recorded_value = "inactive"

[[record]]
line_notation = "CC(C)c1ccc2c(c1)CC[C@H]1[C@](C)(CO)CCC[C@]21C"
observed_property = "Activity"
recorded_value = "inactive"

